test system: human TGF-beta1 mRNA; assay: Dose-dependent antisense inhibition of human TGF-beta1 in HuVEC cells, Lipofectamine 2000, 0.9375-30 nM (Example 3); assay type: cell-based; conditions: 15 nM, Lipofectamine 2000
In the oligonucleotide strings, read from the 5' end, every base follows the letter of its sugar. An asterisk marks phosphorothioate; unmarked linkages are phosphodiester. Other units and linkages are bracketed, terminal groups are in braces. A string of capitals states the bases alone. e = 2'-O-(2-methoxyethyl) (MOE); [5mC] = 5-methylcytosine; d = 2'-deoxy (DNA)
endpoint-label: percent inhibition of TGF-beta1
Returns: string containing the numeric result and its unit.

Example results:
413979 (antisense eG*eG*d[5mC]*dT*d[5mC]*d[5mC]*d[5mC]*dA*dG*d[5mC]*dG*dG*d[5mC]*dA*dA*e[5mC]*eG*eG*eA*eA) [compound 413979] : 95%
413970 (antisense eG*e[5mC]*d[5mC]*dT*d[5mC]*dA*dG*dG*d[5mC]*dT*dG*d[5mC]*dT*d[5mC]*d[5mC]*eT*e[5mC]*eG*eG*e[5mC]) [compound 413970] : 94%
414036 (antisense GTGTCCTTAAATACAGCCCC; sugars from the 5' end e2 d13 e5, backbone and methylation of C not given here) [compound 414036] : 95%
414022 (antisense eG*eG*dG*d[5mC]*dT*d[5mC]*d[5mC]*dG*dG*dT*dT*d[5mC]*dT*dG*d[5mC]*eA*e[5mC]*eT*e[5mC]*eT) [compound 414022] : 91%

Now turn to the next substance.
Ask: Reported percent inhibition of TGF-beta1, substance 413982 (antisense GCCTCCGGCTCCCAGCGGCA; sugars from the 5' end e2 d13 e5, backbone and methylation of C not given here) [compound 413982] : ____
Result: 96%

FYI, the data here is from patent US20110172296A1.
